Values compiled from paper PMC12362615.

- METHOD_NOTES: Pharmacokinetic studies in mice
- Type: in vivo, male CD1 mice
- CONDITION: male, CD1, mouse, plasma, IV, dose 2.75 mg/kg
READOUT: AUC(0-t) (µM·h)

[
  {
    "TEST_SMILES": "c1cc(-c2onc3ccc(-c4nnn[nH]4)cc23)cc(C2CCN(C3CCC3)CC2)c1",
    "READOUT": "AUC(0-t)",
    "MEASURED_VALUE": 4.6
  }
]

----------
- METHOD_NOTES: Pharmacokinetic studies in mice
- Assay type: in vivo, male CD1 mice
- CONDITION: male, CD1, mouse, plasma, IV, dose 2.75 mg/kg
READOUT: clearance (mL/min/kg)

[
  {
    "TEST_SMILES": "c1cc(-c2onc3ccc(-c4nnn[nH]4)cc23)cc(C2CCN(C3CCC3)CC2)c1",
    "MEASURED_VALUE": 22.8
  }
]

----------
Measured Vd, listed per entry for reference.
- METHOD_NOTES: Pharmacokinetic studies in mice
- Type: in vivo, male CD1 mice
- CONDITION: male, CD1, mouse, plasma, IV, 3 mg/kg, read-out: Vss
READOUT: Vd (L/kg)

[
  {
    "TEST_SMILES": "FC(F)(F)Oc1ccc(-c2onc3ccc(-c4nnn[nH]4)cc23)cc1",
    "MEASURED_VALUE": 0.26
  },
  {
    "TEST_SMILES": "Clc1cnc(Oc2cccc(-c3onc4ccc(-c5nnn[nH]5)cc34)c2)c(Cl)c1",
    "MEASURED_VALUE": 0.27
  },
  {
    "TEST_SMILES": "O=C(Nc1cccc(-c2onc3ccc(-c4nnn[nH]4)cc23)c1)C1CC1",
    "MEASURED_VALUE": 0.21
  },
  {
    "TEST_SMILES": "c1cc(OC2CCNCC2)cc(-c2onc3ccc(-c4nnn[nH]4)cc23)c1",
    "MEASURED_VALUE": 0.23
  }
]

----------
- METHOD_NOTES: Pharmacokinetic studies in mice
- Format: in vivo, male CD1 mice
- CONDITION: male, CD1, mouse, plasma, intraperitoneal, 10 mg/kg, IP vs IV, n = 3

[
  {
    "TEST_SMILES": "c1cc(-c2onc3ccc(-c4nnn[nH]4)cc23)cc(C2CCN(C3CCC3)CC2)c1",
    "UNIT_SYMBOL": "%",
    "bioavailability": 82
  }
]

----------
- METHOD_NOTES: Pharmacokinetic studies in mice
- Type: in vivo, male CD1 mice
- CONDITION: male, CD1, mouse, plasma, IV, dose 2.75 mg/kg, read-out: Vss

[
  {
    "MOLECULE": "c1cc(-c2onc3ccc(-c4nnn[nH]4)cc23)cc(C2CCN(C3CCC3)CC2)c1 [Compound 14]",
    "UNIT_SYMBOL": "L/kg",
    "Vd": 0.39
  }
]

----------
Measured IP6K2/IPMK, listed per entry for reference.
- TARGET_OF_ASSAY: purified recombinant human IP6K2 kinase domain (Homo sapiens, UniProt Q9UHH9)
- Sequence (Q9UHH9 whole entry, the tested form may be a part): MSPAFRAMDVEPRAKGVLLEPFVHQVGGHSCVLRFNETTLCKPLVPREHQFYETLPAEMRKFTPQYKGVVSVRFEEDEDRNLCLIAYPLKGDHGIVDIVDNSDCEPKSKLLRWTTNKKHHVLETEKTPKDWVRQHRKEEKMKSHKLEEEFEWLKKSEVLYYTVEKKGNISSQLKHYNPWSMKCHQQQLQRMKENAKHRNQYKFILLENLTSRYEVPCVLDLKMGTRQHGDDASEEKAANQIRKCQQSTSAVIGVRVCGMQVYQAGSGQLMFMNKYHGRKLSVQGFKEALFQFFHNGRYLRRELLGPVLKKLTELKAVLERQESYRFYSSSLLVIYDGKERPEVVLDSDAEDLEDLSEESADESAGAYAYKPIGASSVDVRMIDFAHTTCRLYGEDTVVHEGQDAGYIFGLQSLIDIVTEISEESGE
- METHOD_NOTES: IP6K2 IC50 determination, malachite green Pi release assay
- Format: biochemical
- CONDITION: Table S1; ratio of IC50 values
READOUT: IP6K2/IPMK

[
  {
    "TEST_SMILES": "FC(F)(F)Oc1ccc(-c2onc3ccc(-c4nnn[nH]4)cc23)cc1",
    "READOUT": "IP6K2/IPMK",
    "MEASURED_VALUE": 5.0
  },
  {
    "TEST_SMILES": "O=C(Nc1ccc(-c2onc3ccc(-c4nnn[nH]4)cc23)cc1)C1CC1",
    "READOUT": "IP6K2/IPMK",
    "MEASURED_VALUE": 5.1
  },
  {
    "TEST_SMILES": "c1ccc(Oc2ccc(-c3onc4ccc(-c5nnn[nH]5)cc34)cc2)cc1",
    "READOUT": "IP6K2/IPMK",
    "MEASURED_VALUE": 5.1
  }
]
